# tested.on: mu opiate receptor (Rattus norvegicus)
# Construct: from tissue; host or cells: rat brain membranes/homogenate
# Sequence (P33535 whole entry): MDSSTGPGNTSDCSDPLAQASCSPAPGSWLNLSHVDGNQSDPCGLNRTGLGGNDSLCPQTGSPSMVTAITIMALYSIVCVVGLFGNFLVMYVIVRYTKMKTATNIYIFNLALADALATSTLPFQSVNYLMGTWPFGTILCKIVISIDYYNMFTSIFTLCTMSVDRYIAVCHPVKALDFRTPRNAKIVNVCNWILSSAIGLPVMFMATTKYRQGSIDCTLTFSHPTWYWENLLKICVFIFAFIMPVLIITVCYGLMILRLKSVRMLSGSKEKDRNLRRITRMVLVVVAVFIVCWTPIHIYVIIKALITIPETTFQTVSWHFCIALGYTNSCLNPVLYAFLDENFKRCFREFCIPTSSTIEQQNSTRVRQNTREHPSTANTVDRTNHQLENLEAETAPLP
# measurement.description: Inhibition of [3H]DAMGO binding to the mu opiate receptor in rat brain homogenates
# run.parameters: percent inhibition of DAMGO binding; 0.08 mg of compound per milliliter, 7 nM 3H-labeled DAMGO, rat brain membranes
Assign satisfied to entries whose % Inhibition meets or exceeds 50%; assign not satisfied to the rest.

For orientation, consider the following solved cases.
{"molecule": "CC(C)c1nc(CC2CCCCC2)n2c1NC(=O)C2C(C)C (stereo not shown)", "classification": "not satisfied"}
{"molecule": "CC(C)c1nc(Cc2ccc(F)cc2)n2c1NC(=O)C2C(C)C (racemic)", "classification": "satisfied"}
{"molecule": "CC(C)Cc1nc(C(C)C)c2n1C(C(C)C)C(=O)N2 (stereo not shown)", "classification": "satisfied"}
{"molecule": "CCC(C)Cc1nc(C(C)C)c2n1C(C(C)C)C(=O)N2 (stereo not shown)", "classification": "not satisfied"}

For this molecule, is measured % Inhibition 50% or higher? Cc1nc(CCCCN)c2n1C(C(C)C)C(=O)N2 (stereo not shown)
not satisfied

Next: Cc1nc(CC2CCCCC2)c2n1C(C(C)C)C(=O)N2 (racemic) [Pool 62]
not satisfied

Next: CCC(C)c1nc(C)n2c1NC(=O)C2C(C)C (stereo not shown) [Pool 54]
not satisfied

Next: CC(C)c1nc(Cc2cccc(Br)c2)n2c1NC(=O)C2C(C)C (racemic)
satisfied

Next: CC(C)c1nc(Cc2cccc(C(F)(F)F)c2)n2c1NC(=O)C2C(C)C (racemic)
not satisfied

Next: CCCCC1C(=O)Nc2c(C(C)C)nc(C)n21 (stereo not shown) [Pool 11]
satisfied
